Listed next: entries and their corresponding ALANINE AMINOTRANSFERASE.
Species: Rattus norvegicus
Assay: DrugMatrix - Regimen: Daily Repeat
Assay type: toxicity, organism-based, Sprague-Dawley
Design: regimen Daily Repeat, gender Male, age 6-8 weeks
Condition Details: in vivo, po, 0 mg/kg, 72 h, tissue Plasma, route oral GAVAGE, dose level Control, time 3 day, […]
Give just the numeric value; u/L need not be written.

Worked examples follow.
COc1ccc2[nH]c([S+]([O-])Cc3ncc(C)c(OC)c3C)nc2c1 (stereo not drawn) [OMEPRAZOLE]	66.5
C[C@]12CC[C@@H]3c4ccc(O)cc4CC[C@H]3[C@@H]1CC[C@@H]2O [ESTRADIOL]	72.83

Input: Give me measured ALANINE AMINOTRANSFERASE, please, for this compound: COCCOC(=O)C1=C(C)NC(C)=C(C(=O)OC(C)C)C1c1cccc([N+](=O)[O-])c1 (stereo not drawn) [NIMODIPINE]
Output: 77
